Sourced from PubChem BioAssay

assay: loss of swimming-algae plug formation – whole organism, Chlamydomonas reinhardtii, WT vs cilia-less mutant, absorbance, 96-well, primary screen (AID 463189); details: Chlamydomonas reinhardtii gravitaxis, OD600 absorbance, 2 days; at 10 µM
The source made the active and inactive calls.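 Rule for the calls: active = inhibition at or above 50% relative to wild type and mutant plate controls; inactive = inhibition below 50%.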
Hello, when you answer, please use one of the following outcomes: active, inactive

query: Identify the outcome logged in this assay for the compound shown: C[N+]1(C)C2CCC1CC(OC(=O)c1c[nH]c3ccccc13)C2 (stereo not given)
result: inactive

query: Identify the outcome logged in this assay for the compound shown: C=CCOC(=O)C1=C(C)OC(N)=C(C#N)C12C(=O)N(CN1CCOCC1)c1ccccc12 (stereo not given)
result: inactive

query: Identify the outcome logged in this assay for the compound shown: C/C(Cl)=C/CC1(CN2CCCC2=O)C(=O)NC(=O)NC1=O
result: inactive

query: Identify the outcome logged in this assay for the compound shown: NCCc1c[nH]c2ccccc12
result: inactive

query: Identify the outcome logged in this assay for the compound shown: NC(Cc1cc(O)c(O)cc1O)C(=O)O (stereo not given)
result: inactive

query: Identify the outcome logged in this assay for the compound shown: COc1ccc(CNC(=O)/C=C/c2ccc3[nH]cc(CCN(C)C)c3c2)cc1
result: inactive

query: Identify the outcome logged in this assay for the compound shown: CCCCSP1(=S)NCCCN1
result: inactive

query: Identify the outcome logged in this assay for the compound shown: C#CCN(C)C(C)Cc1ccccc1 (stereo not given)
result: inactive

query: Identify the outcome logged in this assay for the compound shown: C[C@@H](N)Cc1cnc[nH]1
result: inactive

query: Identify the outcome logged in this assay for the compound shown: COc1ccc(CCN)cc1O
result: inactive

query: Identify the outcome logged in this assay for the compound shown: NC(CCCCCP(=O)(O)O)C(=O)O (stereo not given)
result: inactive

query: Identify the outcome logged in this assay for the compound shown: COc1ccc2c(c1OC)C(=O)OC2c1c(O)n(C2CCCCC2)c(=O)[nH]c1=O (stereo not given)
result: inactive

query: Identify the outcome logged in this assay for the compound shown: NCc1cc(=O)[nH]o1
result: inactive

query: Identify the outcome logged in this assay for the compound shown: COc1ccc2[nH]cc(CCN)c2c1
result: inactive

query: Identify the outcome logged in this assay for the compound shown: COc1cccc(CN2CCN(C(=O)COc3ccc4ccccc4c3)CC2)c1
result: inactive

query: Identify the outcome logged in this assay for the compound shown: O=S1(=O)N(CCN2CC=C(c3c[nH]c4cc(F)ccc34)CC2)c2cccc3c2N1CCC3
result: inactive

query: Identify the outcome logged in this assay for the compound shown: CCCN(CCC)[C@@H]1CCc2ccc(O)cc2C1
result: inactive

query: Identify the outcome logged in this assay for the compound shown: CCn1c(O)c(C(=O)CC2NCCc3ccccc32)c(=O)n(CC)c1=S (stereo not given)
result: inactive

query: Identify the outcome logged in this assay for the compound shown: O=C(Cc1ccc(Cl)c(Cl)c1)N1CCCCC1CN1CCCC1 (stereo not given)
result: inactive

query: Identify the outcome logged in this assay for the compound shown: CC(Cc1ccc(OCC(=O)O)cc1)NCC(O)c1cccc(Cl)c1 (stereo not given)
result: inactive

query: Identify the outcome logged in this assay for the compound shown: O=C1C=CC(=O)C=C1
result: inactive

query: Identify the outcome logged in this assay for the compound shown: c1ccc2c(c1)[nH]c1cnccc12
result: inactive

query: Identify the outcome logged in this assay for the compound shown: CCCN(CCC)CCc1ccc(O)c(O)c1
result: inactive

query: Identify the outcome logged in this assay for the compound shown: Cn1c(O)c(C(=O)c2ccccc2Cl)c(=O)n(C)c1=O
result: inactive

query: Identify the outcome logged in this assay for the compound shown: CNc1ccc2oc(C[C@H]3O[C@@]4(CC[C@H]3C)O[C@H]([C@H](C)C(=O)c3ccc[nH]3)[C@H](C)C[C@H]4C)nc2c1C(=O)O
result: active
